- measured_on: ZFP SBS#510 (synthetic)
- Sequence (chain, as listed by the source): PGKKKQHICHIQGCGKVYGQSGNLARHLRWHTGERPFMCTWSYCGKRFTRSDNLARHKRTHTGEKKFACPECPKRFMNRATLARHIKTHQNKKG
- experimental_details: EMSA
- reported_conditions: tags: MBP fusion
readout: Kd (nM)
Quick reminder: number only, in nM, skip the unit.

State the recorded Kd for this entry: GTTGAGGAAG (dsDNA) DNA 1: GTTGAGGAAG DNA 2: CTTCCTCAAC 100
